# target_or_system: 5-hydroxytryptamine receptor 2A (Homo sapiens)
# experiment_description: 5-hydroxytryptamine receptor 2A (HTR2A) small molecule antagonists, cell-based qHTS assay (AID 1963586); further: on the % scale 0 is the no-effect control and ±100 the full control effect; nearly all actives have a fitted effect of over 45% in size
# experimental_setup: HTR2A-CHO cells, DOI-induced calcium flux, fluorescence; series mostly up to 61.5 µM
Results filed as inconclusive are left out. Calls of active or inactive are those of the source. The call rests on the fitted dose curve.
Just give me one of these, please: active, inactive

>>> category("O=C(NC(=O)c1c(F)cccc1F)Nc1cc(Cl)c(OC(F)(F)C(F)F)c(Cl)c1")
"inactive"
>>> category("COC(C)(C)CCC[C@H](C)C/C=C/C(C)=C/C(=O)OC(C)C")
"inactive"
>>> category("O=C(N[C@H]1N=C(c2ccccc2F)c2cccc3c2N(CC3)C1=O)c1cc2ccccc2[nH]1")
"inactive"
>>> category("CC(C)(COCC1CO1)COCC1CO1 (stereo not drawn)")
"inactive"
>>> category("CCOP(=O)(O)C(N)=O")
"inactive"

Input line: Entry CCOC(=O)CBr : call = ?
Output line: inactive

Input line: Entry O=C1C(Cl)C(CCl)CN1c1cccc(C(F)(F)F)c1 (stereo not drawn) : call = ?
Output line: inactive

Input line: Entry CCC(C)c1cc([N+](=O)[O-])cc([N+](=O)[O-])c1OC(=O)C=C(C)C (stereo not drawn) : call = ?
Output line: inactive

###

# experiment_description: p53 small molecule agonists, cell-based qHTS assay with rat liver microsomes: qHTS cell viability counter screen (AID 1963580); further: nearly all actives have a fitted effect of over 45% in size
# experimental_setup: p53RE-bla HCT-116 + rat microsomes, ATP viability, 16 h; series mostly up to 66 µM
Records with an inconclusive call do not appear. Calls of active or inactive are those of the source. Calls come from the whole dose curve.
Just give me one of these, please: active, inactive

Reference set (3 entries):
>>> category("O=C(N/N=C/c1ccc([N+](=O)[O-])o1)c1cc([N+](=O)[O-])cc([N+](=O)[O-])c1O")
"inactive"
>>> category("[Cl][Sb]([Cl])[Cl]")
"inactive"
>>> category("CCCCn1cc[n+](C)c1 (tested in a mixture with another compound)")
"inactive"

Input line: Entry [Hg+2].[I-].[I-] : call = ?
Output line: active

Input line: Entry Oc1ccc2ccc3cccc4ccc1c2c34 : call = ?
Output line: inactive

###

# experiment_description: p53 small molecule agonists, cell-based qHTS assay with rat liver microsomes (AID 1963578); further: on the % scale 0 is the no-effect control and ±100 the full control effect
# experimental_setup: HCT-116 p53RE-bla, beta-lactamase ratio, 16 h; series mostly up to 66 µM
Inconclusive results are not listed. Calls of active or inactive are those of the source. Calls follow the shape of the full dose curve.
readout: activation

Answered cases to consult:
>>> meas_value("COC(=O)N(C(=O)N1CO[C@@]2(C(=O)OC)Cc3cc(Cl)ccc3C2=N1)c1ccc(OC(F)(F)F)cc1")
"inactive"
>>> meas_value("O=[N+]([O-])C(Br)Br")
"inactive"
>>> meas_value("C=CC(C)(CCC=C(C)C)OC(=O)c1ccccc1N (stereo unspecified)")
"inactive"
>>> meas_value("C[C@]12CC[C@H]3[C@@H](CCC4=CC(=O)CC[C@@]43C)[C@@H]1CC[C@@H]2C(=O)O")
"inactive"

Would you mind giving activation for every compound in the list below?
1. CC(C)(C)c1cc(O)ccc1O
2. O=[Se]=O

Output line:
1. inactive
2. inactive

###

# target_or_system: D(2) dopamine receptor (Homo sapiens) (UniProt P14416)
# Sequence (P14416 whole entry, looked up): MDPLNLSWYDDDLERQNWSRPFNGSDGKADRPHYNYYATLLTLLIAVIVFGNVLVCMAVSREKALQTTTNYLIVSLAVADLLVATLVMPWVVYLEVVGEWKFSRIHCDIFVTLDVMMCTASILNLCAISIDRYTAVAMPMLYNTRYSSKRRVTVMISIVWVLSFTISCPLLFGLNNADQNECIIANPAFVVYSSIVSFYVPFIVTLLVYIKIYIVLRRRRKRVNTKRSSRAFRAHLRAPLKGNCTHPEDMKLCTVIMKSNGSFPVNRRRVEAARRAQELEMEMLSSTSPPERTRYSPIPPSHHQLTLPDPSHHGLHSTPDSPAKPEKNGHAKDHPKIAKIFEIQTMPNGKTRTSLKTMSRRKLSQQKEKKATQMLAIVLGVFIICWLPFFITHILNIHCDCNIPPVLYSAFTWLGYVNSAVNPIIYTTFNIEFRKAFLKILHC
# experiment_description: Dopamine D2 receptor (DRD2) small molecule agonists, cell-based qHTS assay (AID 1963594); further: nearly all actives have a fitted effect of over 35% in size
# experimental_setup: HEK293-DRD2 cAMP HTRF, agonist mode, 30 min; series mostly up to 92.4 µM
Results filed as inconclusive are left out. The source made the active and inactive calls. Calls follow the shape of the full dose curve.
Just give me one of these, please: 1 for active, 0 for inactive

>>> category("Oc1ccc(C2(c3ccc(O)cc3)c3ccccc3-c3ccccc32)cc1")
0

Input line: Entry CC1NCCOC1c1ccccc1 (configuration not stated) : call = ?
Output line: 1

Input line: Entry Nc1c(Cl)c(F)nc(OCC(=O)O)c1Cl : call = ?
Output line: 0

Input line: Entry CC(N)=S : call = ?
Output line: 0

Input line: Entry CNC(=O)CSP(=O)(OC)OC : call = ?
Output line: 0

Input line: Entry CC(Cc1ccccc1)NCc1ccccc1Cl (configuration not stated) : call = ?
Output line: 0

Input line: Entry O=c1ssc(Cl)c1Cl : call = ?
Output line: 0

###

# experiment_description: Nuclear factor erythroid 2-related factor 2/antioxidant responsive element (Nrf2/ARE) small molecule agonists: qHTS cell viability counter screen in human keratinocytes (AID 1919968); further: nearly all actives have a fitted effect of over 55% in size
# experimental_setup: KeratinoSens HaCaT ARE cells viability, CellTiter-Fluor, 24 h; series mostly up to 92.4 µM
Inconclusive results are not listed. Active and inactive are the calls of the source. Calls come from the whole dose curve; as a rule, active = well fitted cell-killing curve with a large enough effect in the repeat runs; inconclusive = weak or mixed curves, or effect the other way; inactive = flat fitted curve, though single readings scatter.
Just give me one of these, please: y = active, n = inactive

Reference set (4 entries):
>>> category("C=C(C)C(=O)OCCCCOC(=O)C(=C)C")
"n"
>>> category("CC(C)CP(=S)(S)CC(C)C")
"n"
>>> category("O=C(O)C(O)C(O)C(=O)O (configuration not stated)")
"n"
>>> category("CC(C)N(Cc1ccccc1)C(=O)C(C)(C)C")
"n"

Input line: Entry COc1ccc(OC)c(CC(C)N)c1 (configuration not stated) : call = ?
Output line: n

Input line: Entry NNC(=O)c1cccnc1 : call = ?
Output line: n

Input line: Entry Cc1nnc2n1-c1sc(CCc3ccc(CC(C)C)cc3)cc1C(c1ccccc1Cl)=NC2C (configuration not stated) : call = ?
Output line: y

###

# target_or_system: D(2) dopamine receptor (Homo sapiens)
# experiment_description: Dopamine D2 receptor (DRD2) small molecule antagonists, cell-based qHTS assay (AID 1963595)
# experimental_setup: HEK293-DRD2 cAMP HTRF antagonist mode; series mostly up to 92.4 µM
Inconclusive results are not listed. The source made the active and inactive calls. The call rests on the fitted dose curve; in most records, active means well fitted inhibition curve with a large enough effect in the signal ratio in the repeat runs, with a control signal flat; inconclusive means weak or mixed curves, or effect the other way; inactive means flat fitted curve, though single readings scatter; the % refers to the signal ratio.
Just give me one of these, please: 1 for active, 0 for inactive

>>> category("O=C(NC(=O)c1c(F)cccc1F)Nc1ccc(OC(F)(F)C(F)OC(F)(F)F)c(Cl)c1 (stereo unspecified)")
0
>>> category("OC(Cn1cncn1)(c1ccc(F)cc1)c1ccccc1F (stereo unspecified)")
0
>>> category("C[C@@H]1CC2=CC(=O)CC[C@@H]2[C@H]2CC[C@@]3(C)[C@@H](CC[C@]3(C)O)[C@@H]21")
0
>>> category("CC(O)C(=O)[O][Hg][c]1ccccc1 (stereo unspecified)")
1
>>> category("FC(F)OC(F)(F)C(F)Cl (stereo unspecified)")
0

Input line: Entry CC(N)=S : call = ?
Output line: 0

###

# experiment_description: p53 small molecule agonists, cell-based qHTS assay with rat liver microsomes: qHTS cell viability counter screen (AID 1963580); further: nearly all actives have a fitted effect of over 45% in size
# experimental_setup: p53RE-bla HCT-116 + rat microsomes, ATP viability, 16 h; series mostly up to 66 µM
Records with an inconclusive call do not appear. Calls of active or inactive are those of the source. The call rests on the fitted dose curve.
Just give me one of these, please: active, inactive

Reference set (6 entries):
>>> category("CC(C)CC(C)Nc1ccc(Nc2ccccc2)cc1 (configuration not stated)")
"active"
>>> category("N#Cc1c[nH]cc1-c1cccc2c1OC(F)(F)O2")
"inactive"
>>> category("CC(C)NCC(O)c1ccc([N+](=O)[O-])cc1 (configuration not stated)")
"inactive"
>>> category("COc1ccc2c(C(=O)c3ccc(Cl)cc3)c(C)n(CC(=O)O)c2c1")
"inactive"
>>> category("CCC1(c2cnc[nH]2)Cc2ccccc2C1")
"inactive"
>>> category("Cc1cccc(C)c1NC1=NCCCS1")
"inactive"

Now look at this one.
Input line: Entry O=NN1CCN(N=O)CC1 : call = ?
Output line: inactive

###

# target_or_system: Beta-2 adrenergic receptor (Homo sapiens)
# experiment_description: Adrenergic beta2 receptor (ADRB2) small molecule antagonists, cell-based qHTS assay (AID 1963592); further: nearly all actives have a fitted effect of over 50% in size
# experimental_setup: CHO-ADRB2 cells, isoproterenol-stimulated cAMP HTRF ratio, 0.5 h; series mostly up to 92.4 µM
Records with an inconclusive call do not appear. Active and inactive are the calls of the source. Calls follow the shape of the full dose curve.
Just give me one of these, please: true (1) for active, false (0) for inactive

Reference set (6 entries):
>>> category("C[C@H](CN1CCOCC1)C(C(=O)N1CCCC1)(c1ccccc1)c1ccccc1")
"false (0)"
>>> category("CC/C(=N\\OC/C=C/Cl)C1=C(O)CC(C2CCOCC2)CC1=O (centres undefined)")
"false (0)"
>>> category("c1ccc2c(c1)[nH]c1cnccc12")
"false (0)"
>>> category("CC(Cc1ccccc1)N(C)Cc1ccco1 (centres undefined)")
"false (0)"
>>> category("BrCCCCCCBr")
"false (0)"
>>> category("C#CCN1C(=O)COc2cc(F)c(N3C(=O)C4=C(CCCC4)C3=O)cc21")
"false (0)"

Input line: Entry CC(C)C1CCC(Cc2ccc(Cl)cc2)C1(O)Cn1cncn1 (centres undefined) : call = ?
Output line: true (1)

Input line: Entry N#CNC#N : call = ?
Output line: false (0)
